Kindly state protein stability index for each of the entries shown.
B1: ACBD3 (parent)
chain: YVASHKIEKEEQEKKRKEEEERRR

- Variants of: B1
- protocol details: protein stability index of a GFP-peptide fusion (GPS, HEK-293T) (PSI 1-6); higher = more stable;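 also: lentivirally expressed fusions sorted by FACS into six bins by GFP to DsRed ratio, PSI derived from sequencing read proportions per bin multiplied by bin number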
- protocol conditions: c terminus: a fixed tail appended
One number for each entry.

| mut | observed property | recorded value |
| --- | --- | --- |
| R24N | protein stability index | 3.67 |

For each of the items listed, what is its protein stability index?
1. E20S
2. K14Y

[2.62, 2.27]

The measured values listed here are drawn from the supplement of paper PMC10567573.
